assay: Solubility; type: physicochemical; conditions: Tris buffer pH 8.5, pH 8.5, aqueous buffer, thermodynamic from solid, pH = 8.5 Tris buffer, 24 h room temperature, max. 500 μg/ml
In this section, each of the compounds is paired with its reported solubility at 24 h.
Form entry: value (µg/mL) — number only.

A selection of reference data follows.
For the compound shown here, NC(=O)c1nc(Cn2nc(-c3ccc(Cl)cc3)n(C[C@H](OP(=O)([O-])O)C(F)(F)F)c2=O)nn1-c1ncccc1C(F)(F)F.[Li+] [Example 6] , give the reported solubility at 24 h.
464

For the compound shown here, NC(=O)c1nc(Cn2nc(-c3ccc(Cl)cc3)n(C[C@H](OP(=O)([O-])[O-])C(F)(F)F)c2=O)nn1-c1ncccc1C(F)(F)F.[Mg+2] [Example 9] , give the reported solubility at 24 h.
447

Consider the additional compound presented here.
For the compound shown here, NC(=O)c1nc(Cn2nc(-c3ccc(Cl)cc3)n(C[C@H](O)C(F)(F)F)c2=O)nn1-c1ncccc1Cl [Example 8A] , give the reported solubility at 24 h.
4
